# TESTED_ON: Syk (Homo sapiens, UniProt P43405)
# TEST_PROTOCOL: High Throughput Syk Biochemical Assay (KinEASE TR-FRET)
# CONDITION_NOTES: table 'ALL NEW COMPOUNDS IN 2014', 20 μM ATP, 1 μM biotinylated peptide, 0.015 nM Syk, 30 min at room temperature, read-out: Syk IC50
METRIC: IC50 (nM)

Some solved cases for reference:
Cc1ncc(-c2cc3ncn(C4CC4)c3c(O[C@H](C)[C@H]3CNC(=O)C3)n2)s1 :: 10.2
C[C@@H](Oc1cc(-c2nc(C(C)(C)C)cs2)cc2ncn(C3CC3)c12)[C@H]1CNC(=O)C1 :: 0.442
C[C@@H](Oc1nc(-c2ccc3c(c2)NCCN3C)cc2ncn(C3CC3)c12)[C@H]1CNC(=O)C1 :: 2.25
O=C1C[C@@H](COc2nc(-c3ccc(N4CCN(C5COC5)CC4)cc3)cc3ncn(C4CC4)c23)CN1 :: 65.3

1 = C[C@@H](Oc1nc(-c2ccc3c(c2)NCC3(C)C)cc2ncn(C3CC3)c12)[C@H]1CNC(=O)C1
2 = C[C@@H](Oc1cc(-c2ccc(N3CCN(C4COC4)CC3)cn2)cc2ncn(C3CC3)c12)[C@H]1CNC(=O)C1
3 = C[C@@H](Oc1cc(-c2cnn(C(C)(C)C)c2)cc2ncn(C3CC3)c12)[C@H]1CNC(=O)C1
Order each entry by recorded IC50, climbing from the minimum. Use the labels to give the ranking in the order requested.
3, 1, 2

a = C[C@@H](Oc1nc(-c2cnn(C(C)(C)CO)c2)cc2ncn(C3CC3)c12)[C@H]1CNC(=O)C1
b = C[C@@H](Oc1nc(-c2cnc(N3CCOCC3)s2)cc2ncn(C3CC3)c12)[C@H]1CNC(=O)C1
Could you please tell me which of these two has the higher IC50: a or b ? Output the label that corresponds to your choice.
a

1 = CCOc1cc(-c2cc3ncn(C4CC4)c3c(O[C@H](C)[C@H]3CNC(=O)C3)n2)ccc1OC
2 = COc1cc(-c2cc3ncn(C4CC4)c3c(O[C@H](C)[C@H]3CNC(=O)C3)n2)ccc1OC(F)F
// task: argmin of IC50 over [ 1 , 2 ] Answer with the label corresponding to your selection.
1

P = C[C@@H](Oc1nc(-c2cnc(C(C)(C)C)s2)cc2ncn(C3CC3)c12)[C@H]1CNC(=O)C1
Q = C[C@@H](Oc1cc(-c2cnn(C3COC3)c2)cc2ncn(C3CC3)c12)[C@H]1CNC(=O)C1
R = CC(C)S(=O)(=O)N1CCN(c2ccc(-c3cc4ncn(C5CC5)c4c(O[C@H](C)[C@H]4CNC(=O)C4)n3)cc2)CC1
Hello, I need these entries ordered by IC50, highest reading first. Thanks! Output spec: a listing of the labels in the requested order.
Q, P, R
(Q: 3.21 nM, P: 2.1 nM, R: 1.12 nM)
